Target protein (sequence): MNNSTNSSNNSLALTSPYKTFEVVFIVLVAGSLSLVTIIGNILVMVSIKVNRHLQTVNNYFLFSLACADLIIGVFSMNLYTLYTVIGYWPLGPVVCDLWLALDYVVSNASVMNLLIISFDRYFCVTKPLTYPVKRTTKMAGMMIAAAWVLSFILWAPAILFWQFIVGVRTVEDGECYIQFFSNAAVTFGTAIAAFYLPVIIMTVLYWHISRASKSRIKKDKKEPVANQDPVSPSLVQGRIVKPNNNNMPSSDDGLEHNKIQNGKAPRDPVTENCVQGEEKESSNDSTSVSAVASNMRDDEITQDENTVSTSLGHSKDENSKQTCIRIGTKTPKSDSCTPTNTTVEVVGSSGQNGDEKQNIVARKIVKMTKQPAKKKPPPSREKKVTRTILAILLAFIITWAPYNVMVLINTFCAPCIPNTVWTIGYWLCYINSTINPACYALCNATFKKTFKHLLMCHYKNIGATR
Reported Endpoint: Ki

| Structure Smiles String | Endpoint Value |
| --- | --- |
| CCCCCNC(=O)/N=C(\N)NCCCc1sc(N)nc1C | > 10 µM |
| C[C@@H](NC(=O)/N=C(\N)NCCCc1ncn[nH]1)c1ccccc1 | > 10 µM |

* * *

Entries with their measured pKi, system Histamine H2 receptor (Homo sapiens):
pKi: −log10 of the molar value.
Reported Endpoint: pKi

| Compound | System | Endpoint Value |
| --- | --- | --- |
| CCCCCNC(=O)/N=C(\N)NCCCc1cnc(N)s1.O=C(O)C(F)(F)F.O=C(O)C(F)(F)F | Histamine H2 receptor (Homo sapiens) | 7.64 |
| Cc1ccc(CC(C)CNC(=O)/N=C(\N)NCC2CCc3nc(N)sc3C2)cc1 (stereo not drawn) | Histamine H2 receptor (Homo sapiens) | 6.97 |
| Cc1nnc(CCCN/C(N)=N/C(=O)NCc2ccccc2)s1 | Histamine H2 receptor (Homo sapiens) | 5.25 |
| CC(NC(=O)/N=C(\N)NCCCc1nnc(N)s1)c1cccc(F)c1 (stereo not drawn) | Histamine H2 receptor (Homo sapiens) | 8.09 |
| Cc1ccc(CC(C)CNC(=O)/N=C(\N)NCCCc2cnc(N)s2)cc1 (stereo not drawn) | Histamine H2 receptor (Homo sapiens) | 7.19 |
| Cc1nc(N)sc1-c1cccc(N/C(N)=N/C(=O)NCc2ccccc2)c1 | Histamine H2 receptor (Homo sapiens) | 6.52 |
| Cc1nc(N)sc1-c1ccc(N/C(N)=N/C(=O)NC2CCCCC2)cc1 | Histamine H2 receptor (Homo sapiens) | 6.26 |
| C[C@@H](NC(=O)/N=C(\N)NCCCc1ncn[nH]1)c1ccccc1 | Histamine H2 receptor (Homo sapiens) | 7.27 |
| Cc1nc(N)sc1-c1cccc(N/C(N)=N/C(=O)NCC(C)CCCc2ccccc2)c1 (stereo not drawn) | Histamine H2 receptor (Homo sapiens) | 6.63 |
| N/C(=N\C(=O)NCc1ccccc1)NCC1CCc2nc(N)sc2C1 (stereo not drawn) | Histamine H2 receptor (Homo sapiens) | 6.52 |
| Cc1nc(N)sc1-c1cccc(N/C(N)=N/C(=O)NCCCCCCNC(=O)/N=C(\N)Nc2cccc(-c3sc(N)nc3C)c2)c1 | Histamine H2 receptor (Homo sapiens) | 6.42 |
| CCCCCCNC(=O)/N=C(\N)NCCCc1nnc(N)s1 | Histamine H2 receptor (Homo sapiens) | 8.29 |
| N/C(=N\C(=O)NCc1ccccc1)NCCCc1cnc(N)s1 | Histamine H2 receptor (Homo sapiens) | 7.57 |
| C[C@@H](NC(=O)/N=C(\N)NCCCn1cc(CN(C)C)nn1)c1ccccc1 | Histamine H2 receptor (Homo sapiens) | 5.35 |
| Cc1nc(N)sc1-c1ccc(N/C(N)=N/C(=O)NCc2ccccc2)cc1 | Histamine H2 receptor (Homo sapiens) | 6.67 |
| C[C@@H](NC(=O)/N=C(\N)NCCCc1c[nH]cn1)c1ccccc1 | Histamine H2 receptor (Homo sapiens) | 8.21 |
| CC(CCCc1ccccc1)CNC(=O)/N=C(\N)NCC1CCc2nc(N)sc2C1 (stereo not drawn) | Histamine H2 receptor (Homo sapiens) | 6.96 |
| N/C(=N\C(=O)NCCCCCCCCNC(=O)/N=C(\N)NCCCc1nnc(N)s1)NCCCc1nnc(N)s1 | Histamine H2 receptor (Homo sapiens) | 8.32 |
| Cc1nc(N)sc1-c1ccc(N/C(N)=N/C(=O)NCCCCCCNC(=O)/N=C(\N)Nc2ccc(-c3sc(N)nc3C)cc2)cc1 | Histamine H2 receptor (Homo sapiens) | 6.46 |
| CCCCCNC(=O)/N=C(\N)Nc1cccc(-c2sc(N)nc2C)c1.O=C(O)C(F)(F)F.O=C(O)C(F)(F)F | Histamine H2 receptor (Homo sapiens) | 6.72 |
| Cc1nc(N)sc1-c1ccc(N/C(N)=N/C(=O)NCC(C)CCCc2ccccc2)cc1 (stereo not drawn) | Histamine H2 receptor (Homo sapiens) | 6.50 |
| CCCCCNC(=O)/N=C(\N)NCC1CCc2nc(N)sc2C1.O=C(O)C(F)(F)F.O=C(O)C(F)(F)F (stereo not drawn) | Histamine H2 receptor (Homo sapiens) | 6.81 |
| Cc1nnc(CCCN/C(N)=N/C(=O)NCCCCCCCCN)s1 | Histamine H2 receptor (Homo sapiens) | 5.74 |
